B1: library; numbered along this chain (parent)
chain: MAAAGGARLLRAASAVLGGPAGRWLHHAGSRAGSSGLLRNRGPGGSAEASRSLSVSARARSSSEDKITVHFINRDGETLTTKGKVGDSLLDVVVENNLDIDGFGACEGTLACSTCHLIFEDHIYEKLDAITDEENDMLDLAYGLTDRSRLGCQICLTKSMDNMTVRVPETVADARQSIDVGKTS

Variants of: B1
Assay: scaled log2 fold change in cell abundance, elesclomol vs control (0 = silent mean, 1 = nonsense mean) (scaled log2 ratio); higher = higher viability under elesclomol (loss of FDX1 cuproptosis function);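 further: variant abundance is its share of total variant reads in each endpoint sample, from next-generation sequencing of the integrated ORF PCR-amplified out of genomic DNA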
Conditions: with ABC1 FDX1 KO; elesclomol 5 nM; glucose 10 mM; 14 days

# mutationLabel, scaled log2 fold change
records = [
    ("A172F", -0.0712),
    ("G76D", 0.21),
    ("G18Q", -0.43),
    ("L156R", 1.06),
    ("F103I", 0.186),
    ("C112E", 1.07),
    ("V69Q", 1.14),
    ("S54P", 0.151),
    ("G19L", -0.367),
    ("S30K", 0.428),
    ("F71T", 0.523),
    ("L138I", 0.0896),
    ("S35Y", -0.531),
    ("D146K", 0.0568),
    ("S35F", -0.398),
]
